Exercise: for every item that follows, state its recorded pIC50.
Test system: 521955-158-R6-J3-PDC complex spheroid growth, % test/control;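 also: spheroids exposed to compounds for 7 days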
Assay: Anticancer human tumor 521955-158-R6-J3-PDC patient-derived pancreatic carcinoma cell line growth inhibition [Asc]
Conditions: curve of first compound; second compound 10 µM
pIC50: −log10 of the molar value.

Solved entries:
1. COc1c(OCCCN2CCOCC2)ccc2c3n(c(=NC(=O)c4cnc(N)nc4)nc12)CCN3 + Cc1c(S(C)(=O)=O)c(-c2cc(F)cc(N3CCN(c4ccc(NS(=O)(=O)c5ccc(NC(CCN6CCC(C(=O)OCCCP(=O)(O)O)CC6)CSc6ccccc6)c(S(=O)(=O)C(F)(F)F)c5)cc4)CC3)c2)c(-c2ccc(Cl)cc2)n1C(C)C    > 8.50
2. CNC(C)C(=O)NC1CN(S(=O)(=O)c2cccc(S(=O)(=O)N3CCC4CCC(C(=O)NC(c5ccccc5)c5ccccc5)N4C(=O)C(NC(=O)C(C)NC)C3)c2)CCC2CCC(C(=O)NC(c3ccccc3)c3ccccc3)N2C1=O (configuration not stated) + Cc1c(S(C)(=O)=O)c(-c2cc(F)cc(N3CCN(c4ccc(NS(=O)(=O)c5ccc(NC(CCN6CCC(C(=O)OCCCP(=O)(O)O)CC6)CSc6ccccc6)c(S(=O)(=O)C(F)(F)F)c5)cc4)CC3)c2)c(-c2ccc(Cl)cc2)n1C(C)C    > 8.50
3. C#Cc1c(F)ccc2cc(O)cc(-c3ncc4c(N5CC6CCC(C5)N6)nc(OCC56CCCN5CC(F)C6)nc4c3F)c12 (configuration not stated) + Cc1c(S(C)(=O)=O)c(-c2cc(F)cc(N3CCN(c4ccc(NS(=O)(=O)c5ccc(NC(CCN6CCC(C(=O)OCCCP(=O)(O)O)CC6)CSc6ccccc6)c(S(=O)(=O)C(F)(F)F)c5)cc4)CC3)c2)c(-c2ccc(Cl)cc2)n1C(C)C    > 7.50
4. O=C(c1cc(Cc2n[nH]c(=O)c3ccccc23)ccc1F)N1CCN(C(=O)C2CC2)CC1 + Cc1c(S(C)(=O)=O)c(-c2cc(F)cc(N3CCN(c4ccc(NS(=O)(=O)c5ccc(NC(CCN6CCC(C(=O)OCCCP(=O)(O)O)CC6)CSc6ccccc6)c(S(=O)(=O)C(F)(F)F)c5)cc4)CC3)c2)c(-c2ccc(Cl)cc2)n1C(C)C    > 7.50
5. C=CC(=O)N1CCN(c2nc(=O)n(-c3c(C)ccnc3C(C)C)c3nc(-c4c(O)cccc4F)c(F)cc23)C(C)C1 (configuration not stated) + Cc1c(S(C)(=O)=O)c(-c2cc(F)cc(N3CCN(c4ccc(NS(=O)(=O)c5ccc(NC(CCN6CCC(C(=O)OCCCP(=O)(O)O)CC6)CSc6ccccc6)c(S(=O)(=O)C(F)(F)F)c5)cc4)CC3)c2)c(-c2ccc(Cl)cc2)n1C(C)C    > 7.50

Below are 2 compounds. Give each one its pIC50.
1. CCN1C(C(=O)NC23CCC(C(=O)O)(CC2)CC3)C(c2cccc(Cl)c2F)C2(C(=O)Nc3cc(Cl)ccc32)C12CCCCC2 (configuration not stated) + Cc1c(S(C)(=O)=O)c(-c2cc(F)cc(N3CCN(c4ccc(NS(=O)(=O)c5ccc(NC(CCN6CCC(C(=O)OCCCP(=O)(O)O)CC6)CSc6ccccc6)c(S(=O)(=O)C(F)(F)F)c5)cc4)CC3)c2)c(-c2ccc(Cl)cc2)n1C(C)C
2. O=C(c1ccc(F)c(F)c1Nc1ccc(I)cc1F)N1CC(O)([C@@H]2CCCCN2)C1 + Cc1c(S(C)(=O)=O)c(-c2cc(F)cc(N3CCN(c4ccc(NS(=O)(=O)c5ccc(NC(CCN6CCC(C(=O)OCCCP(=O)(O)O)CC6)CSc6ccccc6)c(S(=O)(=O)C(F)(F)F)c5)cc4)CC3)c2)c(-c2ccc(Cl)cc2)n1C(C)C

Given back:
1: > 8.02; 2: > 8.50

Measured values drawn from PubChem BioAssay AID1963451 for this set.
